Measured Target Protein Degradation (% remaining at 100 nM, 24 h) JAK1 by item
target: JAK1 (Homo sapiens, UniProt P23458); construct: endogenous in cells; host or cells: MHH-CALL-4; assay: Western blot assay, JAK1 protein degradation; format: cell-based; details: MHH-CALL-4 cells, vehicle control = 100%
Sequence (P23458 whole entry): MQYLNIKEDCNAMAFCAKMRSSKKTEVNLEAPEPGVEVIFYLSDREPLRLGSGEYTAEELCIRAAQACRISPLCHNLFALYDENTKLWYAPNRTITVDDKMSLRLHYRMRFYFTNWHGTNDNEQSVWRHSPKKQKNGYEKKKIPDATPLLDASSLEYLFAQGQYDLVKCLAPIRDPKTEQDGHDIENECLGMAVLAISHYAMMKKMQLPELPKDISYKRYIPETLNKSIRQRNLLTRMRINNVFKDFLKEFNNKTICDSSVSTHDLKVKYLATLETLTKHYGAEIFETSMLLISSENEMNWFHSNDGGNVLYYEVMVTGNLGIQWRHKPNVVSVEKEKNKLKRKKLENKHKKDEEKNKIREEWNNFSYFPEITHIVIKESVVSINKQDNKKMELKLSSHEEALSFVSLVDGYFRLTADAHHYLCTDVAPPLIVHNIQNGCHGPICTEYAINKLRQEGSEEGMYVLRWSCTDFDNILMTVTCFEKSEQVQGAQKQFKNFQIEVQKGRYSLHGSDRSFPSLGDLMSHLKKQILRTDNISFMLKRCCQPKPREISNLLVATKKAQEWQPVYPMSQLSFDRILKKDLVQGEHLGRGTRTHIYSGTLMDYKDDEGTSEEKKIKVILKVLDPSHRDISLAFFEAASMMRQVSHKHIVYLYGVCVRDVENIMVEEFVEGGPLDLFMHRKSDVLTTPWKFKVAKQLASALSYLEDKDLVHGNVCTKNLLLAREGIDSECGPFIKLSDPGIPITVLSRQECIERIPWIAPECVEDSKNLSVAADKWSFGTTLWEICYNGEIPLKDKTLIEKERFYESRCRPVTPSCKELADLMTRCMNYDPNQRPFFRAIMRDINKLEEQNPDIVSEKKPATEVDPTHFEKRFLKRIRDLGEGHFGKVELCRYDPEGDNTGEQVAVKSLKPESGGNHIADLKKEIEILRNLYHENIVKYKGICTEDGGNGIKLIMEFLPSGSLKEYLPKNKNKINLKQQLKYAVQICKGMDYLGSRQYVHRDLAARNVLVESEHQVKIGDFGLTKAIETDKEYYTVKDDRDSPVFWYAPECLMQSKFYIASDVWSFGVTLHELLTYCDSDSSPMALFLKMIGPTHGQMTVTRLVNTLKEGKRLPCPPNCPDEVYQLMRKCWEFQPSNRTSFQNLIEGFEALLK
// units = % remaining; emit number, no label

These recorded examples may help you get a feel for the data.
| compound | unit.spec | reported |
| --- | --- | --- |
| CCS(=O)(=O)N1CC(CC#N)(n2cc(-c3nc(Nc4ccc(C(=O)NCCCNC(=O)COc5ccc(C6CCC(=O)NC6=O)cc5)cc4)nc4[nH]ccc34)cn2)C1 (stereo not drawn) | % remaining | 83 |
| CCS(=O)(=O)N1CC(CC#N)(n2cc(-c3nc(Nc4ccc(C(=O)NCCN5CCN(c6cccc(C7CCC(=O)NC7=O)c6)CC5)cc4)nc4[nH]ccc34)cn2)C1 (stereo not drawn) | % remaining | 114 |
| CCS(=O)(=O)C1CC(CC#N)(n2cc(-c3nc(Nc4ccc(C(=O)N5CCC(c6ccc7c(c6)C(=O)N(C6CCC(=O)NC6=O)C7=O)CC5)cc4)nc4[nH]ccc34)cn2)C1 (stereo not drawn) | % remaining | 107 |
| CCS(=O)(=O)N1CC(CC#N)(n2cc(-c3nc(Nc4ccc(C(=O)NCCCNC(=O)COc5cccc(C6CCC(=O)NC6=O)c5)cc4)nc4[nH]ccc34)cn2)C1 (stereo not drawn) | % remaining | 83 |
| CCS(=O)(=O)N1CC(CC#N)(n2cc(-c3nc(Nc4ccc(C(=O)N5CCC6(CCN(c7ccc(C8CCC(=O)NC8=O)cc7)CC6)C5)cc4)nc4[nH]ccc34)cn2)C1 (stereo not drawn) | % remaining | 126 |
| CCS(=O)(=O)N1CC(CC#N)(n2cc(-c3nc(Nc4ccc(C(=O)NCCC5CCN(c6ccc7c(c6)C(=O)N(C6CCC(=O)NC6=O)C7=O)CC5)cc4)nc4[nH]ccc34)cn2)C1 (stereo not drawn) | % remaining | 69 |
| CCS(=O)(=O)N1CC(CC#N)(n2cc(-c3nc(Nc4ccc(C(=O)NCCCN5CC6CCC(C5)N6c5ccc(C6CCC(=O)NC6=O)cc5)cc4)nc4[nH]ccc34)cn2)C1 (stereo not drawn) | % remaining | 113 |
| CCS(=O)(=O)N1CC(CC#N)(n2cc(-c3nc(Nc4ccc(C(=O)NCCNC(=O)COc5ccc(C6CCC(=O)NC6=O)cc5)cc4)nc4[nH]ccc34)cn2)C1 (stereo not drawn) | % remaining | 105 |

JAK1 (Homo sapiens, UniProt P23458) assay, compound CCS(=O)(=O)N1CC(CC#N)(n2cc(-c3nc(Nc4ccc(C(=O)NCCCN5CCN(c6cccc(C7CCC(=O)NC7=O)c6)CC5)cc4)nc4[nH]ccc34)cn2)C1 (stereo not drawn) , recorded Target Protein Degradation (% remaining at 100 nM, 24 h) JAK1 = 128

JAK1 (Homo sapiens, UniProt P23458) assay, compound CCS(=O)(=O)N1CC(CC#N)(n2cc(-c3nc(Nc4ccc(C(=O)NCCCN5CCC(c6ccc7c(c6)CN(C6CCC(=O)NC6=O)C7=O)CC5)cc4)nc4[nH]ccc34)cn2)C1 (stereo not drawn) , recorded Target Protein Degradation (% remaining at 100 nM, 24 h) JAK1 = 112
